Data provenance: patent US20250340659A1

- tested-target: T1, canine OX40L, full length membrane form, expressed on HEK293 cells (canine)
- T1 construct: also called OX40L expressing HEK; HEK OX40L cells
- T1 chain: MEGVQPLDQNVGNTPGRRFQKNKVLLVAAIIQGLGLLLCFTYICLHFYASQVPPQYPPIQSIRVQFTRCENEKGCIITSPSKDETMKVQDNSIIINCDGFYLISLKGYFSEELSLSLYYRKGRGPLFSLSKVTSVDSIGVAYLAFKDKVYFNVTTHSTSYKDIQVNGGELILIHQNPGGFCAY
- test-details: flow cytometry
observation-type: GEO mean OX40L expressing HEK
# output: bare number, no unit

[Q] Please give the measured GEO mean OX40L expressing HEK for this binder: PMX058 (antibody, V domains shown, also called PMX58) VH: EVQLVESGGDLVKPEGSLRLSCVVSDFTFGSYGMSWVRQAPGKGLQWVAYISSDGRSTSYTDAVKGRFTISRDNAKNTLHLQMNSLRTEDTAVYYCAKLGRGFAFGYWGQGTLVTVSS VL: SYVLTQLPSKNVTLKQPAHITCGGDNIGSKSVHWYQQKLGQAPVLIIYYDSNRPTGIPERFSGANSGNTATLTISGALAEDEADYYCQVWDSSASVFGGGTHLTVL
[A] 3.34e+06

[Q] Queued: PMX045 (antibody, V domains shown, also called PMX45) VH: EVQLVESGGDLVKPGGSLRLSCVASGFTFSSYHMTWVRQAPGKGLQWVAYITSGGITTSYADAVKGRFTISRDNAKNTLYLQMSSLRAEDTAMYYCARDLVLLLGGADYWGQGTLVTVSS VL: SYELTQPPSVNVTLRETAHITCGGDSIGRKYVQWIQQNPGQAPVVIIYKDSNRPTGIPERFSGANSGNTATLTISGALAEDEADYYCQVGDSGTKAVFGGGTHLTVL
[A] 1.47e+06

[Q] Queued: PMX037 (antibody, V domains shown, also called PMX37) VH: EVQLLESGGDLVKPGGSLRLSCVASGFTFSNYEMYWVRQAPGKGLEWVARFYESGSTTYSAEAVPGRFTISRDNAKNMAYLQMNSLRAEDTAVYYCASASSSSWRFDYWGQGTLVTVSS VL: SYVLTQLPSVSVTLGQTARITCGGDSIGSKNVYWFQQKLGQAPVLIIYDDRSRPSGIPERFSGANSGNTATLTISGALAEDEADYYCQVWDSSTGVFGGGTHLTVL
[A] 1.42e+06

[Q] Queued: PMX054 (antibody, V domains shown, also called PMX54) VH: EVHLVESGGDLVKPEGSLRLSCVVSGFTFSSYDMSWVRQAPGKGLQWVAYISSDGRSTGYTDAVKGRFTISRDNAKKTLYLQMNSLRSEDTAVYYCAKETPRWGFDYWGQGTLVTVSS VL: SYVLTQLPSVSVTLRQTARITCGGASIGSKNVYWHQQKLGQAPLLIIYDDSSRPSGIPERFSGANSGNTATLTISGALAEDEADYYCQVWDSSTSVFGGGTHLTVL
[A] 3.27e+06

[Q] Queued: PMX082 (antibody, V domains shown, also called PMX82) VH: EVQLVESGGDLVKPGGSLRLSCVASGFTFSSHHMTWVRQAPGKGLQWVAYIVSGGTNTNYADAVKGRFTISRDNAKNTLYLQMNSLRAEDTAVYYCASDLVLAVGAPFYWGQGTLVTVSS VL: SYELTQPPSVNVTLRETAHITCGGDSIGRKYVQWIQQNPGQAPVVIIYKDINRPTGIPERFSGANSGNTATLTISGALAEDEADYYCQVGDSGTKAVFGEGTQLTVL
[A] 544000

[Q] Queued: PMX038 (antibody, V domains shown, also called PMX38) VH: EVQLVESGGDLVKPGGSLRLSCVASGFTFSSYHMSWVRQAPGKGLQWVAYITSGGRTTSYADAVKGRFTISRDNAKNTLYLQMKSLRAEDTAVYYCARDLVLVLGGAEYWGQGTLVTVSS VL: SYELTQPPSVNVTLRETAHITCGGDSIGRKYVQWIQQNPGQAPVVIIYKDSNRPTGIPERFSGANSGNTATLTISGALAEDEADYYCQVGDSGSKAVFGGGTHLTVL
[A] 1.56e+06

[Q] Queued: PMX110 (antibody, V domains shown) VH: EVQLVESGGDLVRPGGSLRLSCVASGFTFSSYHMSWVRQAPGKGLQWVAFINSGGSSTTYADVVRGRFTISRDYAKNTLYLQMNSLRAEDTAVYYCASGSILTHFDYWGQGTLVTVSS VL: SFVLTQLPSVSVTLRQTARITCGGDSVGSKSVYWYQQKLGQAPVLIIYRDSNRPTGIPERFSGASSGNTATLTISGALAEDEADYYCQVWDNSNKAMFGGGTHLTVL
[A] 31900

[Q] Queued: PMX052 (antibody, V domains shown, also called PMX52) VH: EVQLVESGGDLVKPAGSLRLSCVASGFTFSSYSMSWVRQAPEKGLQLVAGISGGGSRTYYSDAVKGRFTISRDNAKNTVYLQMNSLRAEDTAIYYCAKDGGSWAGYNFDYWGQGTLVTVSS VL: DIVMTQTPPSLSVSPRETASISCKASQSLLHSDGSTYLDWYLQKPGQSPQLLIYLGSNRFTGVSDRFSGSGSGTEFTLRISRVEANDTGVYYCGQGTQLPYTFGQGTELEIK
[A] 765000

[Q] Queued: PMX293 (antibody, V domains shown) VH: EVRLLESGGDLVKPAGSLRLSCAVSGFTFSTYDMSWVRQAPGKGLQWVAYITYDGRTTSYTDTVKGRFTVSRDNAKNMLYLKMNSLRSEDAAVYYCAKAHRGWFFDHWGQGTLVTVSS VL: SYVLTQLPSVSVTLRQTARITCGGDSIGSKNVYWYQQKLGQAPVLIIYDDTSRPSGIPERFSGANSGTTATLTISGALAEDEADYYCQVWDSSTGVFGGGTHLTVL
[A] 602000

[Q] Queued: PMX087 (antibody, V domains shown) VH: EVHLVESGGDLVKPGGSLRLSCVASGFTFSNYHMSWVRQAPGKGLQWVAFINSGGSGTSYADAVKGRFTISRDYAKSTLYLQMNSLRAEDTAVYYCASGYIWTHFDYWGQGTLVTVSS VL: SYVLTQLPSVSVTLRQTARITCGGDIIGSKNVYWYQQKLGQAPILIIYRDSNRPTGIPERFSGASSGNTATLTISGALAEDEADYYCQVWDSSTSVFGGGTHLTVL
[A] 1.05e+06
